Source: PubChem BioAssay (NCI)

System: MOLT-4 leukemia
Experiment: NCI-60 one-dose screen, 48 h
Conditions: 10 µM
This is part of a sample that, as a whole, favours compounds with a hit. Of some 83,000 tested, about 20% had one in any assay. Calls of active or inactive are those of the source. Rule for the calls: active = growth percent below 10; inactive = the rest.
Can you answer with just one of these options? T = active, F = inactive

Challenge: For this compound, state the assay outcome: Cc1ccc2c(c1)-c1cc(C)nn1-c1ccc(C#N)cc1O2
Response given: F

Challenge: In this assay, the call recorded for c1ccc(CC(NCCNC(Cc2ccccc2)c2ccccc2)c2ccccc2)cc1 (stereo not drawn) was what?
Response given: T

Challenge: Just curious, what result did CC(C)=C1CCC(C)C/C1=N\N=C(N)N (stereo not drawn) get here?
Response given: F

----------
Test system: NCI-H23 lung
Experiment: NCI-60 one-dose screen, 48 h
Settings: 10 µM
This is part of a sample that, as a whole, favours compounds with a hit. Of some 83,000 tested, about 20% had one in any assay. The source made the active and inactive calls. Rule for the calls: active = growth percent below 10; inactive = the rest.
Reply using exactly one outcome from y (active), n (inactive)

Challenge: Write down the call the test reported for this molecule. Item: C/C(=N\NC(=O)c1sc(=S)n(C)c1N)c1cc2ccccc2o1
Response given: n

Challenge: # lookup: test call for CCOC(=O)CSC(=S)SCC(=O)OCC
Response given: n

Challenge: Outcome logged for CC(C)OCc1cc(CN2CCN(c3cccc(Cl)c3)CC2)c(O)c2ncccc12 in this assay:
Response given: y

Challenge: Recorded call for COc1ccc(N2CCN(c3nc(-c4ccccc4)c(C#N)c(=O)[nH]3)CC2)cc1 ?
Response given: n

Challenge: How was CC(=O)[C@H]1CC[C@H]2[C@@H]3CC[C@@H]4CC=C(C=O)C[C@]4(C)[C@H]3CC[C@]12C classified in this test?
Response given: n

Challenge: Recorded test call requested for CC(=O)OC1Oc2ccccc2-c2oc(=O)c(-c3ccc(F)cc3)cc21 (stereo unspecified)
Response given: n

Challenge: Per the assay record, what outcome was assigned to CCCCCCCC/C=C/CCCCCCCCC1=NCCN1CCO ?
Response given: n

Challenge: Write down the call the test reported for this molecule. Item: COc1ccc(-c2ccccc2)cc1C(=O)c1ccc(-c2ccccc2)cc1
Response given: n

Challenge: State the result this test recorded for COc1cccc2c1C(=O)c1c(O)c3c(c(O)c1C2=O)C[C@@](O)(C(=O)COC(=O)c1ccccc1)C[C@@H]3OC1CC(N)C(O)C(C)O1 (stereo partly specified) .
Response given: y

Challenge: Kindly provide the recorded test outcome for the following molecule: COc1ccc(OC)c([N+](=O)[O-])c1C=O
Response given: n

Challenge: Called result for Cc1[nH]nc2c(=S)[nH]c(=O)[nH]c12
Response given: n

Challenge: Status in this test for Cc1ccc(-c2cc(-c3cccc(Nc4ccnc5cc(Cl)ccc45)c3)nc3nc(N)[nH]c(=O)c23)cc1 ?
Response given: n

Challenge: Which result was noted for this molecule in the test: N=C(N)c1ccc(-c2ccc(-c3cccs3)s2)nc1
Response given: n

Challenge: Test call for this molecule, please: Cc1cc(C#Cc2ccccc2)ccc1-n1c(/C=C/c2cc(O)ccc2O)nc2ccccc2c1=O
Response given: y

Challenge: Test call for this molecule, please: O=C(O)c1ccccc1C(=O)c1cccc2c(F)cccc12
Response given: n

Challenge: Dear all, I need the recorded test outcome for COc1ccc(-c2cc(/C=C3\C(=O)Nc4cc(Cl)ccc43)[nH]n2)cc1 , thank you.
Response given: n

Challenge: Assay result, entry O=C(Nc1cccc(-c2nc3ccccc3[nH]2)c1)c1cccc(NC(=O)c2ccco2)c1 — outcome?
Response given: n

Challenge: Which outcome did this test record for the molecule O=C(COCc1c(-c2ccccc2)no[n+]1[O-])Nc1nc(-c2ccc(Cl)cc2)cs1 ?
Response given: n

Challenge: # outcome recorded in this test, key = CCc1c(C)[nH]c(=O)c(C(N)=O)c1C#N
Response given: n

Challenge: I would be grateful if you could indicate the recorded call for Cc1ccc(/C=C2\CN(Cc3cn(CCNc4ccnc5cc(Cl)ccc45)nn3)C/C(=C\c3ccc(C)cc3)C2=O)cc1 .
Response given: y

Challenge: Identify the outcome logged in this assay for the molecule shown: Cc1ccc(S(=O)(=O)N2CCc3ccccc3CC2)cc1
Response given: n

Challenge: Lab log entry: CCCOCC(O)CNCCN (stereo unspecified) — outcome as called in the assay?
Response given: n

Challenge: Just curious, what result did O=C(Nc1ccc(OS(=O)(=O)Cc2ccccc2)cc1)C12CC3CC(CC(C3)C1)C2 get here?
Response given: n

Challenge: What was the test verdict on CS(=O)(=O)Nc1ccc(Nc2c3ccccc3nc3cc(Cl)ccc23)cc1 ?
Response given: n

Challenge: Can you look up the reported call for COc1cccc2c1O/C(=C\c1ccc([N+](=O)[O-])s1)C2=O for me?
Response given: n

Challenge: Assay outcome for Oc1ccc(/C=N\Nc2ccccn2)c(O)c1 : what was it?
Response given: y

Challenge: So what was the verdict on O=C(NCCc1nccs1)c1cnc2c(S)cccc2c1 in this test?
Response given: n

Challenge: // param item: COc1ccccc1S(=O)(=O)Nc1ccc2c(c1)CN(C)C(=O)N2 ; yields the recorded call
Response given: n

Challenge: Status in this test for Cc1nc2ccc(-n3c(-c4ccc(Cl)cc4)nc4ccccc4c3=O)cc2n1Cc1ccccc1 ?
Response given: n

Challenge: Write down the call the test reported for this molecule. Item: CCCCCCCOc1cccc(/C=C2/C(=O)N=C3SCCCN32)c1
Response given: n

Challenge: Call for entry COc1cc(OC)cc(-c2n/c(=C\c3c(O)[nH]c4ccc(OC)cc34)cc3c2=Nc2ccccc2-3)c1 :
Response given: n

Challenge: Give the logged outcome of this assay for the following molecule: CC(C)OP(=O)(O)c1ncc(-c2ccc(C(F)(F)F)cc2)c(NC2CCCCCC2)n1
Response given: n

Challenge: Answer briefly: the call reported for O=C1NN(c2ccccc2)C(c2cccnc2)=N/C1=C\c1cccnc1 in this assay.
Response given: n

Challenge: Recorded test outcome, item CCCCCN(CCCCC)C(C)C(O)c1ccc2cc(Cl)c3ccccc3c2c1 (stereo unspecified)
Response given: n

Challenge: Recorded call for S=C(Cc1ccc(-c2ccccc2)cc1)N1CCOCC1 ?
Response given: n

Challenge: Recorded test outcome, item CCN(Cc1ccccc1)C1CCN(Cc2cc(Br)ccc2O)CC1
Response given: n

----------
Tested on: OVCAR-4 ovarian
Test: NCI-60 one-dose screen, 48 h (100 = growth as untreated, 0 = no growth, -100 = all killed)
Conditions: 10 µM
Method: Growth inhibition of the OVCAR-4 human tumor cell line is measured as a screen for anti-cancer activity. Cells are grown in 96 well plates and exposed to the test compound for 48 hours. Compounds are tested at a single concentration, which is 10^-5 M for most compounds. The reported endpoint is percent growth (GI% or GIPRCNT), where numbers from 0 - 100% represent growth inhibition, and numbers from -100% - 0 represent cell death. For example, a value of 40 represents 60% growth inhibition. […]
About 83,000 compounds went through this panel and 20% of them were active in at least one assay; those are over-represented in the sample as a whole.
assay endpoint: growth (%)
Report the value in % with no unit label.

Challenge: Form: Entry = COc1ccc(-c2oncc2-c2cc(OC)c3c(c2)OCO3)cc1 | System = OVCAR-4 ovarian | growth = ____
Response given: 66.2

Challenge: Missing value: growth, OVCAR-4 ovarian, entry N#C/C(=C/c1cc([N+](=O)[O-])ccc1Cl)C(N)=O . Fill in?
Response given: 94.2

Challenge: # query: growth | item O=C1/C(=C/c2cccs2)CCC/C1=C\c1cccs1 | system: OVCAR-4 ovarian
Response given: 77.9

Challenge: Recorded growth for O=C(O)c1ccc(CNc2ccc(C(=O)CCl)cc2)cc1 with OVCAR-4 ovarian, please?
Response given: 91

Challenge: Form field - read-out: growth; system: OVCAR-4 ovarian; submitted item: COc1ccc2c(=O)cc(C(Cl)(Cl)Cl)oc2c1
Response given: -12.9

Challenge: What is its growth for OVCAR-4 ovarian? Entry: CCCCNC(=O)Oc1ccc(/C(=C(\C)c2ccc(OC)cc2)c2ccc(OCCN3CCCCC3)cc2)cc1
Response given: 64.8

Challenge: Entry O=C(N/N=C\c1cc(Cl)ccc1O)c1ccncc1 , system OVCAR-4 ovarian: what growth was measured?
Response given: 31.4

Challenge: Tell me reported growth for COc1ccc(-c2cc(/C=C3\C(=O)Nc4cc(Cl)ccc43)[nH]n2)cc1 , tested with OVCAR-4 ovarian.
Response given: 64.1

Challenge: Given the entry CCN(CC)CCn1c(=N)n(CC(O)c2ccc(Cl)c(Cl)c2)c2ccccc21 (configuration not stated) , what growth was observed with OVCAR-4 ovarian?
Response given: 69

Challenge: What reported growth corresponds to COc1ccc2nc(-c3ccccc3)cc(C(C)=O)c2c1 on OVCAR-4 ovarian?
Response given: 103

Challenge: Param readout = growth; param system = OVCAR-4 ovarian; param query = CC(CNC(Cc1ccccc1)c1ccccc1)NC(Cc1ccccc1)c1ccccc1 (configuration not stated) ; response: value
Response given: 31.7

Challenge: API: value(readout= growth, system= OVCAR-4 ovarian, query= Cc1cc(C)c2c(Nc3ncnc4c3sc3nc(C)cc(C)c34)n[nH]c2n1 )
Response given: 86.3

Challenge: So what growth did CC(=O)[C@H]1CC[C@H]2[C@@H]3CC[C@@H]4CC=C(C=O)C[C@]4(C)[C@H]3CC[C@]12C get with OVCAR-4 ovarian?
Response given: 99

Challenge: # returns recorded growth (system: OVCAR-4 ovarian) for O=[N+]([O-])c1ccc(Br)o1
Response given: 122

Challenge: Enter reported growth observed with OVCAR-4 ovarian for CCCCCCCCCCCCCC[n+]1ccc(C)cc1
Response given: 7.84

Challenge: Value wanted: growth (OVCAR-4 ovarian) of entry O=C1/C(=C/c2ccc(O)cc2)Oc2ccc(Cl)cc21
Response given: 120

Challenge: // map O=C(Nc1cccc(-c2nc3ccccc3[nH]2)c1)c1cccc(NC(=O)c2ccco2)c1 to recorded growth (system: OVCAR-4 ovarian)
Response given: 80

Challenge: Hi! What's the reported growth for N#Cc1ccc(-n2cnc(NC(=O)[C@H]3CCN(C#N)C3)c2)cc1 on OVCAR-4 ovarian?
Response given: 28.9

Challenge: Item: C#CCn1c(-c2cccc(OCCCCl)c2)nc2c1c(=O)n(C)c(=O)n2C Test system: OVCAR-4 ovarian Read-out: growth Value: ?
Response given: 57

Challenge: Param readout = growth; param system = OVCAR-4 ovarian; param query = Cc1ccc(S(=O)(=O)Nc2cccc3[nH]c(C(F)(F)F)nc23)cc1 ; response: value
Response given: 36

Challenge: Test system OVCAR-4 ovarian; read-out growth; what value for C#Cc1ccc(-n2c(/C=C/c3cc(OC)c(OC)c(OC)c3)nc3ncccc3c2=O)cc1 ?
Response given: 63.4

Challenge: What value of growth on OVCAR-4 ovarian does CCOC(=O)Nc1ccc2c(c1)C(=O)N(CCOC)c1ccccc1O2 have?
Response given: 62.1

Challenge: Short answer please: growth, OVCAR-4 ovarian, entry Cc1ncc([N+](=O)[O-])n1CCOc1ccc(C(=O)/C=C/c2ccc(C(F)(F)F)cc2)cc1
Response given: 100

Challenge: For OVCAR-4 ovarian, provide growth of CCN(Cc1ccccc1)C1CCN(Cc2cc(Br)ccc2O)CC1 please.
Response given: 36.9

Challenge: Notebook entry, OVCAR-4 ovarian assay: growth of COc1ccc(C2=Cc3ccc(OC(C)=O)cc3OC2)cc1 = ?
Response given: 88.1

Challenge: I'm curious: which growth was measured for COc1cc(-c2cc(-c3ccc(C)cc3)nc3nc(N)[nH]c(=O)c23)ccc1Oc1ccnc2cc(Cl)ccc12 tested on OVCAR-4 ovarian?
Response given: 66.3

Challenge: What measured growth is associated with CCCCCCCCCCCC(=O)NCCCN(C)C on OVCAR-4 ovarian?
Response given: 96.5
